# Test system: 883617-216-R-J1-PDC tumor spheroids, viability;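 note: spheroids exposed to agents for 7 days before the viability read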
# protocol_text: Anticancer human tumor 883617-216-R-J1-PDC patient-derived bladder carcinoma cell line growth inhibition [PI3K]
# protocol_conditions: second compound 0.00316 µM; first compound 0.316 µM; stronger effect = lower value; spheroids with HUVEC and MSC
quantity_measured: viability, T/C (%)

INSERT INTO measurements (compound, experimental_target, quantity_measured, recorded_result) VALUES
  ('Cn1nccc1Nc1nccc(-c2ccn(C(CO)c3ccc(Cl)c(F)c3)c(=O)c2)n1 (stereo unspecified) + COc1c(OCCCN2CCOCC2)ccc2c3n(c(=NC(=O)c4cnc(N)nc4)nc12)CCN3', '883617-216-R-J1-PDC tumor spheroids, viability', 'viability, T/C', 64.6),
  ('Cn1ncc(Cl)c1-c1cc(C(=O)NC(CN)Cc2cccc(F)c2)sc1Cl (stereo unspecified) + COc1c(OCCCN2CCOCC2)ccc2c3n(c(=NC(=O)c4cnc(N)nc4)nc12)CCN3', '883617-216-R-J1-PDC tumor spheroids, viability', 'viability, T/C', 59),
  ('Cn1nccc1Nc1nccc(-c2ccn(C(CO)c3ccc(Cl)c(F)c3)c(=O)c2)n1 (stereo unspecified) + CC(Nc1ccc2c(c1)OCCn1cc(N3C(=O)OCC3C(F)F)nc1-2)C(N)=O', '883617-216-R-J1-PDC tumor spheroids, viability', 'viability, T/C', 80.3),
  ('CC(C)NCC(C(=O)N1CCN(c2ncnc3c2C(C)CC3O)CC1)c1ccc(Cl)cc1 (stereo unspecified) + CC(Nc1ccc2c(c1)OCCn1cc(N3C(=O)OCC3C(F)F)nc1-2)C(N)=O', '883617-216-R-J1-PDC tumor spheroids, viability', 'viability, T/C', 57.4),
  ('CC1(C)CCC(Nc2ncc(C(F)(F)F)c(-c3c[nH]c4c(P(C)(C)=O)c(C#N)ccc34)n2)CN1 (stereo unspecified) + COc1c(OCCCN2CCOCC2)ccc2c3n(c(=NC(=O)c4cnc(N)nc4)nc12)CCN3', '883617-216-R-J1-PDC tumor spheroids, viability', 'viability, T/C', 33),
  ('CCCS(=O)(=O)Nc1ccc(F)c(C(=O)c2c[nH]c3ncc(-c4ccc(Cl)cc4)cc23)c1F + COc1c(OCCCN2CCOCC2)ccc2c3n(c(=NC(=O)c4cnc(N)nc4)nc12)CCN3', '883617-216-R-J1-PDC tumor spheroids, viability', 'viability, T/C', 85.1);
